Provenance of the data: patent US20240199648A1

biological target: MAP4K1 (HPK1) (Homo sapiens)
Sequence (Q92918 whole entry): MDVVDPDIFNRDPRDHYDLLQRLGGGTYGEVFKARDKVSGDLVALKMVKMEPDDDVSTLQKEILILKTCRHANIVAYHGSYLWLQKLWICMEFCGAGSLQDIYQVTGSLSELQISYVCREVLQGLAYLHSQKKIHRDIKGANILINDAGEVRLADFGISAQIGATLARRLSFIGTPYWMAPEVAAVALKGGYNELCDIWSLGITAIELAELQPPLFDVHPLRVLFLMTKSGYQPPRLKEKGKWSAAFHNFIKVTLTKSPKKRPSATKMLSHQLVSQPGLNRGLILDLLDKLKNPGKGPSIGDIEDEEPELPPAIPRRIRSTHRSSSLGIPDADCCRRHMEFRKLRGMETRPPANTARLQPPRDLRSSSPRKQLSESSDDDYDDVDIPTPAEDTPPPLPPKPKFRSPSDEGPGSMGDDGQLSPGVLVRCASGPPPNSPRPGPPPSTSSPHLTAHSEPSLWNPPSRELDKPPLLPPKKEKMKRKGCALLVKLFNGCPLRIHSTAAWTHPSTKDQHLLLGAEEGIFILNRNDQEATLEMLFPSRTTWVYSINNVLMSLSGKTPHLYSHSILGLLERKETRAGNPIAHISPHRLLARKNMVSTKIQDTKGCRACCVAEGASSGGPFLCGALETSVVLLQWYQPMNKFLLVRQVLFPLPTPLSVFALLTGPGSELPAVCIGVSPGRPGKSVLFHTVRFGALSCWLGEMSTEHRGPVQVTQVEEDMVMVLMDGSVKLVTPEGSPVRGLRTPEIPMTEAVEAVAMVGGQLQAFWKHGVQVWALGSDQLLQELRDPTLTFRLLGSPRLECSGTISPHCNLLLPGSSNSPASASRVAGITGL
measure: pIC50
By convention, pIC50 is the negative base-10 log of a molar concentration.

# compound, system tested, pIC50
records = [
    ("COC[C@@](C)(N)c1cnc(O[C@@H]2CN(C(C)=O)[C@H]2C)c2cnc(Nc3ccc4c(n3)[C@@H](C)[C@H](C)OC4=O)cc12", "MAP4K1 (HPK1) (Homo sapiens)", 9.70),
    ("C[C@@H]1c2nc(Nc3cc4c(C(C)(C)N)cnc(NC5CN(C(=O)C6CC6)C5)c4cn3)ccc2C(=O)OC1(C)C", "MAP4K1 (HPK1) (Homo sapiens)", 9.48),
    ("COC[C@@](C)(N)c1cnc(OC2CN(C(=O)C3CC3)C2)c2cnc(Nc3ccc4c(n3)[C@@H](C)[C@H](C)OC4=O)cc12", "MAP4K1 (HPK1) (Homo sapiens)", 9.77),
]

Log: MAP4K1 (HPK1) (Homo sapiens), compound C[C@@H]1OC(=O)c2ccc(Nc3cc4c(C(C)(C)N)ccc(OC5CN(C(=O)C6CC6)C5)c4cn3)nc2[C@H]1C , pIC50 = 9.92

Field pIC50 (system: MAP4K1 (HPK1) (Homo sapiens)) for entry C[C@@H]1OC(=O)c2ccc(Nc3cc4c(C(C)(C)N)cnc(O[C@H]5C[C@@H](C(=O)N6CC(F)(F)C6)C5)c4cn3)nc2[C@H]1C = 9.72

pIC50 on MAP4K1 (HPK1) (Homo sapiens) for C[C@@H]1c2nc(Nc3cc4c(C(C)(C)N)cnc(OC5CN(C(=O)[C@H]6C[C@H]6F)C5)c4cn3)ccc2C(=O)OC1(C)C is 9.77

# pIC50 measured on MAP4K1 (HPK1) (Homo sapiens) for item CCCC(C)(N)c1cnc(OC2CN(C(C)=O)C2)c2cnc(Nc3ccc4c(n3)[C@@H](C)C(C)(C)OC4=O)cc12 (single isomer, unassigned) = 10.00

The measured pIC50 that C[C@@H]1OC(=O)c2ccc(Nc3cc4c(C(C)(C)N)cnc(OC5CN(C(=O)C6CC6)C5)c4cn3)nc2[C@H]1C showed for MAP4K1 (HPK1) (Homo sapiens) is 9.77

Log: MAP4K1 (HPK1) (Homo sapiens), compound C[C@@H]1OC(=O)c2ccc(Nc3cc4c(C(C)(C)N)cnc(OC5CN(C(=O)[C@H]6CCOC6)C5)c4cn3)nc2[C@H]1C , pIC50 = 9.49

For the compound C[C@@H]1OC(=O)c2ccc(Nc3cc4c(C(C)(C)N)cnc(OC5CN(C(=O)N(C)C)C5)c4cn3)nc2[C@H]1C , the measured pIC50 on MAP4K1 (HPK1) (Homo sapiens) was 9.72

Record CC(=O)N1CCC[C@@H]1COc1ncc(C(C)(C)N)c2cc(Nc3ccc4c(n3)[C@@H](C)C(C)(C)OC4=O)ncc12 / MAP4K1 (HPK1) (Homo sapiens), pIC50 recorded as 8.95
